- Species: Canis familiaris
- test-protocol: Vasodilatory activity (at 10 nmol) relative to nifedipine (at 1 nmol) by femoral artery blood flow (FBF) in autoperfused canine femoral artery preparations.
- Type: functional, Canis lupus familiaris
quantity-kind: FBF Ratio
Just the number.

# annotated cases, reported FBF Ratio shown
COc1cc2c(cc1C(=O)N1CCC(N(C)CCc3ccccc3)CC1)CCC(=O)N2.Cl
1.98
CCC(=O)Nc1ccc(C(=O)N2CCC(N(C)CCc3ccccc3)CC2)c(C)c1C.Cl
0.43

## Input # lookup: FBF Ratio of `CC(C)c1cc(C(=O)N2CCC(N(C)CCc3ccccc3)CC2)cc2c1NC(=O)CC2.Cl`
## Output 1.13

====

- Organism: Canis familiaris
- test-protocol: Vasodilatory activity (at 10 nmol) relative to nifedipine (at 1 nmol) by femoral artery blood flow (FBF) in autoperfused canine femoral artery preparations.
- Type: functional, Canis lupus familiaris
quantity-kind: FBF Ratio
Just the number.

# annotated cases, reported FBF Ratio shown
CCC(=O)Nc1c(C)cc(C(=O)N2CCC(N(C)CCc3ccccc3)CC2)cc1[N+](=O)[O-]
0.24
CCc1cc(C(=O)N2CCC(N(C)CCc3ccccc3)CC2)cc2c1NC(=O)CC2.O=C(O)C(=O)O
1.07
CN(CCc1ccccc1)C1CCN(C(=O)c2ccc3c(c2)CCC(=O)N3)CC1.Cl
1.64
COc1cc(C(=O)N2CCC(N(C)CCc3ccccc3)CC2)cc2ccc(O)nc12.Cl
1.36

## Input # lookup: FBF Ratio of `CN(CCc1ccccc1)C1CCN(C(=O)c2cccc3c2NC(=O)CC3)CC1.Cl`
## Output 0.62
